Provide the reported IC50 of each item.
tested on: lymphoma cell line G3; assay: Cell growth assay (resazurin fluorescence) on CHOP-resistant G3 NHL cells; type: cell-based, human; conditions: with 1 μM doxorubicin, lymphoma cell line G3; read-out: IC50 (μM) with doxorubicin (1 μM)
Report as a plain number; the unit µM is understood.

Lab book: IC50 of COC1C=COC2(C)Oc3c(C)c(O)c4c(c3C2O)C2=NC3(CCN(CC(C)C)CC3)NC2=C(NC(=O)C(C)=CC=CC(C)C(O)C(C)C(O)C(C)C(OC(C)=O)C1C)C4=O (stereo not shown) noted as 0.64

In plain terms, COC1C=COC2(C)Oc3c(C)c(O)c4c(c3C2N)C2=NC3(CCN(C(=O)NCC(C)C)CC3)NC2=C(NC(=O)C(C)=CC=CC(C)C(O)C(C)C(O)C(C)C(OC(C)=O)C1C)C4=O (stereo not shown) has a documented IC50 of 5.19

IC50 recorded for this molecule, COC1C=COC2(C)Oc3c(C)c(O)c4c(c3C2N)C2=NC3(CCN(CC(C)C)CC3)NC2=C(NC(=O)C(C)=CC=CC(C)C(O)C(C)C(O)C(C)C(OC(C)=O)C1C)C4=O (stereo not shown) , is 0.43

Reported IC50 of COC1C=COC2(C)Oc3c(C)c(O)c4c(c3C2=N)C2=NC3(CCN(C(=O)NCC(C)C)CC3)NC2=C(NC(=O)C(C)=CC=CC(C)C(O)C(C)C(O)C(C)C(OC(C)=O)C1C)C4=O (stereo not shown) : 1.2

----------
tested on: multi-drug resistant ovarian cancer cell line NCI/ADR-RES; assay: Cell growth assay on NCI/ADR-RES cells; assay type: cell-based; conditions: Homo sapiens, NCI/ADR-RES; therapeutic drug alone, ADR-RES; read-out: IC50
observable: IC50

The molecule listed as COc1cccc2c1C(=O)c1c(O)c3c(c(O)c1C2=O)C[C@@](O)(C(=O)CO)C[C@@H]3O[C@H]1C[C@H](N)[C@H](O)[C@H](C)O1 has a reported IC50 of > 32 µM

----------
tested on: lymphoma cell line G3; test: Cell growth assay (resazurin fluorescence) on CHOP-resistant G3 NHL cells; assay type: cell-based, human; details: analog alone, lymphoma cell line G3; read-out: IC50
observable: pIC50
Scale: negative log10 of molar concentration, which is what pIC50 denotes.

In plain terms, COC1C=COC2(C)Oc3c(C)c(O)c4c(c3C2N)C2=NC3(CCN(CC(C)C)CC3)NC2=C(NC(=O)C(C)=CC=CC(C)C(O)C(C)C(O)C(C)C(OC(C)=O)C1C)C4=O (stereo not drawn) has a documented pIC50 of 4.28

# pIC50 of COC1C=COC2(C)Oc3c(C)c(O)c4c(c3C2O)C2=NC3(CCN(CC(C)C)CC3)NC2=C(NC(=O)C(C)=CC=CC(C)C(O)C(C)C(O)C(C)C(OC(C)=O)C1C)C4=O (stereo not drawn) = 4.29

Item: COC1C=COC2(C)Oc3c(C)c(O)c4c(c3C2=N)C2=NC3(CCN(C(=O)NCC(C)C)CC3)NC2=C(NC(=O)C(C)=CC=CC(C)C(O)C(C)C(O)C(C)C(OC(C)=O)C1C)C4=O (stereo not drawn) | pIC50: 4.21

Reported pIC50 of COC1C=COC2(C)Oc3c(C)c(O)c4c(c3C2=O)C2=NC3(CCN(C(=O)OCC(C)C)CC3)NC2=C(NC(=O)C(C)=CC=CC(C)C(O)C(C)C(O)C(C)C(OC(C)=O)C1C)C4=O (stereo not drawn) : 4.37
